Please provide measured MTT Assay (Viability) 4 h d-U937 for the entries that follow.
Test system: Differentiated U937 cells
measurement_notes: MTT assay: cell viability on exposure to test compounds
Format: cell-based, human
conditions_used: percentage loss of cell viability vs vehicle; 1 μg/mL, 4 hr, 5% FCS
Give bare numbers, in %.

molecule	recorded_value
CNC(=O)Nc1cc(Oc2ccc(NC(=O)Nc3cc(C(C)(C)C)nn3-c3ccc(OC)cc3)c3ccccc23)ccn1 [Example 38]	−1.7
COCC(=O)Nc1cc(Oc2ccc(NC(=O)Nc3cc(C(C)(C)C)nn3-c3ccc(NS(C)(=O)=O)cc3)c3ccccc23)ccn1 [Example 2]	−13.2
CNC(=O)Nc1cc(Oc2ccc(NC(=O)Nc3cc(C(C)(C)C)nn3-c3ccc(O)cc3)c3ccccc23)ccn1 [Example 33]	−1.3

State recorded MTT Assay (Viability) 4 h d-U937 for all listed molecules.
1. COCC(=O)Nc1cc(Oc2ccc(NC(=O)Nc3cc(C4(C)CCCCC4)nn3-c3ccc(C)cc3)c3ccccc23)ccn1 [Example 26]
2. COc1ccc(-n2nc(C(C)(C)C)cc2NC(=O)Nc2ccc(Oc3ccnc(NC(=O)N(C)C)c3)c3ccccc23)cc1 [Example 7]

−27.9
−13.3

----------
Please provide measured IC50 for the entries that follow.
tested_on: p38 MAPKα isoform (MAPK14: Invitrogen) (Homo sapiens, UniProt Q16539)
Sequence (Q16539 whole entry, canonical isoform): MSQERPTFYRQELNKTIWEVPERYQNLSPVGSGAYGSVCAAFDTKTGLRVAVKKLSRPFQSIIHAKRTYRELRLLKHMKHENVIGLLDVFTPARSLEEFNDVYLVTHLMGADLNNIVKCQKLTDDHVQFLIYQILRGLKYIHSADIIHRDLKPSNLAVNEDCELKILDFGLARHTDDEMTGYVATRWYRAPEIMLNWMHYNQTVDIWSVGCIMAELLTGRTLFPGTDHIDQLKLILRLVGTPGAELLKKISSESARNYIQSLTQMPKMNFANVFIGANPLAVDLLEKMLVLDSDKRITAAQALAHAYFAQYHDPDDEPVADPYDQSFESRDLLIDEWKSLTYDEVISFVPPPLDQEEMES
measurement_notes: p38 MAPKα enzyme inhibition assay (FRET, Z-LYTE, via MAPKAP-K2 activation)
conditions_used: 2 hr pre-incubation, ATP 10.0 μM; read-out: Enzyme Inhibition IC50 p38α
Numbers only, in nM.

Example entries and their recorded answers appear below.
molecule	IC50 (nM)
COc1ccc(-n2nc(C(C)(C)C)cc2NC(=O)Nc2ccc(Oc3ccnc(NC(=O)N4CCCC4)c3)c3ccccc23)cc1 [Example 8]	16.6
CN(C)C(=O)Nc1cc(Oc2ccc(NC(=O)Nc3cc(C(C)(C)C)nn3-c3ccc(O)cc3)c3ccccc23)ccn1 [Example 34]	2
CNC(=O)Nc1cc(Oc2ccc(NC(=O)Nc3cc(C(C)(C)C)nn3-c3ccc(OC)cc3)c(C)c2C)ccn1 [Example 37]	29.1
COCC(=O)Nc1cc(Oc2ccc(NC(=O)Nc3cc(C4CC4)nn3-c3ccc(C)cc3)c3ccccc23)ccn1 [Example 24]	1.5
COc1ccc(-n2nc(C(C)(C)C)cc2NC(=O)Nc2ccc(Oc3ccnc(NC(=O)N4CCOCC4)c3)c3ccccc23)cn1 [Example 40]	15.6
COCCOCC(=O)Nc1cc(Cc2ccc(NC(=O)Nc3cc(C(C)(C)C)nn3-c3ccc(C)cc3)c3ccccc23)ccn1 [Example 65]	1.2
COCC(=O)Nc1cc(Oc2ccc(NC(=O)Nc3cc(C(C)(C)C)nn3-c3ccc(OC)c(OC)c3)c3ccccc23)ccn1 [Example 11]	4
COCC(=O)Nc1cc(Oc2ccc(NC(=O)Nc3cc(C(C)(C)C)nn3-c3cccs3)c3ccccc23)ccn1 [Example 56]	6.6
COCC(=O)Nc1cc(COc2ccc(NC(=O)Nc3cc(C(C)(C)C)nn3-c3ccc(C)cc3)c(C)c2C)ccn1 [Example 58]	10.6

Provide the documented IC50 with p38 MAPKα isoform (MAPK14: Invitrogen) (Homo sapiens, UniProt Q16539) as the system for COCC(=O)Nc1cc(Oc2ccc(NC(=O)Nc3cc(C(C)(C)C)nn3-c3cccc(O)c3)c3ccccc23)ccn1 [Example 32] 7.7
